target: D(1A) dopamine receptor (Homo sapiens); assay: Intrinsic activity relative against Dopamine receptor D1.; type: functional

cpd.smiles: CCCc1cc2c(s1)CN[C@@H]1CCc3cc(O)c(O)cc3[C@@H]21
Intrinsic activity: 125%

cpd.smiles: Cc1cnc2c(c1)[C@@H]1c3cc(O)c(O)cc3CC[C@H]1NC2
Intrinsic activity: 156%

cpd.smiles: CCCCc1cnc2c(c1)[C@@H]1c3cc(O)c(O)cc3CC[C@H]1NC2
Intrinsic activity: 118%

cpd.smiles: Oc1cc2c(cc1O)[C@H]1c3cc4c(nc3CN[C@@H]1CC2)CCCC4
Intrinsic activity: 136%

====

target: D(2) dopamine receptor (Homo sapiens, UniProt P14416); assay: Binding affinity to human Dopamine receptor D2 by using radioligand [3H]spiperone in LTK cells
Sequence (P14416 whole entry): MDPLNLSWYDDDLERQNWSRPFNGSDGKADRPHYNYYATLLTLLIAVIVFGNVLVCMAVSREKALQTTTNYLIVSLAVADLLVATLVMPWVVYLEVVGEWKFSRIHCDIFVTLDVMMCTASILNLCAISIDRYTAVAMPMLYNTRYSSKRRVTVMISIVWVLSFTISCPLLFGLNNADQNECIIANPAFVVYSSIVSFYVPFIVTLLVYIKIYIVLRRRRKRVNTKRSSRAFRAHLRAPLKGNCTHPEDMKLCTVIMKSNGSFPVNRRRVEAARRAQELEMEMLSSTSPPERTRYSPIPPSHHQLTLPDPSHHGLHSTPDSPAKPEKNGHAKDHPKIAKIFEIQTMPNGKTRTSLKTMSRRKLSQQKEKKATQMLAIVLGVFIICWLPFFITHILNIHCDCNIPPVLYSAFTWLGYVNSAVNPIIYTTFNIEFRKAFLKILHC
pKi: −log10 of the molar value.
Below, each entry is listed alongside its reported pKi.

cpd.smiles: CCCc1ccc2c(n1)CN[C@@H]1CCc3cc(O)c(O)cc3[C@@H]21
pKi: 6.35

cpd.smiles: Cc1cc2c(nc1C)CN[C@@H]1CCc3cc(O)c(O)cc3[C@@H]21
pKi: 5.04

cpd.smiles: Oc1cc2c(cc1O)[C@H]1c3cncc(F)c3CN[C@@H]1CC2
pKi: 6.05

cpd.smiles: CCCCc1cnc2c(c1)[C@@H]1c3cc(O)c(O)cc3CC[C@H]1NC2
pKi: 5.72

cpd.smiles: Cc1ccc2c(n1)CN[C@@H]1CCc3cc(O)c(O)cc3[C@@H]21
pKi: 5.85

cpd.smiles: Oc1cc2c(cc1O)[C@H]1c3cccnc3CN[C@@H]1CC2
pKi: 5.60

cpd.smiles: Cc1cnc2c(c1)[C@@H]1c3cc(O)c(O)cc3CC[C@H]1NC2
pKi: 4.92

cpd.smiles: COc1ccc2c(n1)CN[C@@H]1CCc3cc(O)c(O)cc3[C@@H]21
pKi: 6.28

cpd.smiles: Cc1cncc2c1CN[C@@H]1CCc3cc(O)c(O)cc3[C@@H]21
pKi: 6.40

cpd.smiles: Oc1cc2c(cc1O)[C@H]1c3cc4c(nc3CN[C@@H]1CC2)CCCC4
pKi: 5.44

cpd.smiles: Oc1cc2c(cc1O)[C@H]1c3cnccc3CN[C@@H]1CC2
pKi: 5.89

cpd.smiles: Oc1cc2c(cc1O)[C@H]1c3ccc(F)nc3CN[C@@H]1CC2
pKi: 5.66

cpd.smiles: Oc1cc2c(cc1O)[C@H]1c3ccncc3CN[C@@H]1CC2
pKi: 5.36

====

Below, each entry is listed alongside its reported Intrinsic activity.
target: UniProt:P21728; assay: Intrinsic activity relative against Dopamine receptor D1.; assay type: functional

cpd.smiles: COc1ccc2c(n1)CN[C@@H]1CCc3cc(O)c(O)cc3[C@@H]21
Intrinsic activity (%): 114
//
cpd.smiles: Oc1cc2c(cc1O)[C@H]1c3ccncc3CN[C@@H]1CC2
Intrinsic activity (%): 131
//
cpd.smiles: Oc1cc2c(cc1O)[C@H]1c3cncc(F)c3CN[C@@H]1CC2
Intrinsic activity (%): 126
//
cpd.smiles: Oc1cc2c(cc1O)[C@H]1c3ccccc3CN[C@@H]1CC2
Intrinsic activity (%): 121
//
cpd.smiles: Oc1cc2c(cc1O)[C@H]1c3ccc(F)nc3CN[C@@H]1CC2
Intrinsic activity (%): 141
//
cpd.smiles: Oc1cc2c(cc1O)[C@H]1c3cccnc3CN[C@@H]1CC2
Intrinsic activity (%): 125
//
cpd.smiles: CCCc1ccc2c(n1)CN[C@@H]1CCc3cc(O)c(O)cc3[C@@H]21
Intrinsic activity (%): 116
//
cpd.smiles: Cc1cc2c(nc1C)CN[C@@H]1CCc3cc(O)c(O)cc3[C@@H]21
Intrinsic activity (%): 134
//
cpd.smiles: Oc1cc2c(cc1O)[C@H]1c3cnccc3CN[C@@H]1CC2
Intrinsic activity (%): 81
//
cpd.smiles: Cc1cncc2c1CN[C@@H]1CCc3cc(O)c(O)cc3[C@@H]21
Intrinsic activity (%): 75
//
cpd.smiles: Cc1ccc2c(n1)CN[C@@H]1CCc3cc(O)c(O)cc3[C@@H]21
Intrinsic activity (%): 121

====

molecular target: D(1A) dopamine receptor (Homo sapiens); test: Binding affinity to Dopamine receptor D1 by using radioligand [125I]SCH-23982 in HEK cells
pKi: −log10 of the molar value.
Below, each entry is listed alongside its reported pKi.

cpd.smiles: Oc1cc2c(cc1O)[C@H]1c3ccc(F)nc3CN[C@@H]1CC2
pKi: 6.74

cpd.smiles: Oc1cc2c(cc1O)[C@H]1c3cnccc3CN[C@@H]1CC2
pKi: 5.96

cpd.smiles: CCCc1ccc2c(n1)CN[C@@H]1CCc3cc(O)c(O)cc3[C@@H]21
pKi: 7.35

cpd.smiles: Oc1cc2c(cc1O)[C@H]1c3ccncc3CN[C@@H]1CC2
pKi: 6.85

cpd.smiles: Oc1cc2c(cc1O)[C@H]1c3cc4c(nc3CN[C@@H]1CC2)CCCC4
pKi: 6.25

cpd.smiles: Cc1cncc2c1CN[C@@H]1CCc3cc(O)c(O)cc3[C@@H]21
pKi: 5.96

cpd.smiles: Oc1cc2c(cc1O)[C@H]1c3cncc(F)c3CN[C@@H]1CC2
pKi: 6.41

cpd.smiles: Cc1cc2c(nc1C)CN[C@@H]1CCc3cc(O)c(O)cc3[C@@H]21
pKi: 6.55

cpd.smiles: CCCCc1cnc2c(c1)[C@@H]1c3cc(O)c(O)cc3CC[C@H]1NC2
pKi: 6.05

cpd.smiles: Cc1ccc2c(n1)CN[C@@H]1CCc3cc(O)c(O)cc3[C@@H]21
pKi: 6.85

cpd.smiles: COc1ccc2c(n1)CN[C@@H]1CCc3cc(O)c(O)cc3[C@@H]21
pKi: 7.31

cpd.smiles: Cc1cnc2c(c1)[C@@H]1c3cc(O)c(O)cc3CC[C@H]1NC2
pKi: 6.62

cpd.smiles: Oc1cc2c(cc1O)[C@H]1c3cccnc3CN[C@@H]1CC2
pKi: 7.19

====

target: Dopamine D1 and D2 receptor (Homo sapiens) (UniProt P14416+P21728); experiment: Ratio of Ki for human dopamine-2(D-2) and dopamine-1(D-1) receptors; assay type: protein assay
Sequence (P14416 whole entry, looked up): as the sequence (P14416 whole entry) above
Sequence (P21728 whole entry, looked up): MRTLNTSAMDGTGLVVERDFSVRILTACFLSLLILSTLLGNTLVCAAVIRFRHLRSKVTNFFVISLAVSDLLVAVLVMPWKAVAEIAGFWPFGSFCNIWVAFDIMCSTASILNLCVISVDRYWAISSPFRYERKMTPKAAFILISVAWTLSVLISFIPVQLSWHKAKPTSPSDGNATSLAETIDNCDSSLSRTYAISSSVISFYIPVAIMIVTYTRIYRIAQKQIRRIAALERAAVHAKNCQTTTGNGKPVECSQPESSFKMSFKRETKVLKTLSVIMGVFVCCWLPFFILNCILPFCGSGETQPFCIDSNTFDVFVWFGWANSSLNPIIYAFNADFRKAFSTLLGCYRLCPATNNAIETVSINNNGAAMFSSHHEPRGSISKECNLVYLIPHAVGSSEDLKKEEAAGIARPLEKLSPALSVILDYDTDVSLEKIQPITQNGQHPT
Threshold 6: Ratio strictly smaller gives yes, otherwise no.

cpd.smiles: Cc1ccc2c(n1)CN[C@@H]1CCc3cc(O)c(O)cc3[C@@H]21
tested.target: Dopamine D1 and D2 receptor (Homo sapiens) (UniProt P14416+P21728)
group.label: no

cpd.smiles: CCCCc1cnc2c(c1)[C@@H]1c3cc(O)c(O)cc3CC[C@H]1NC2
tested.target: Dopamine D1 and D2 receptor (Homo sapiens) (UniProt P14416+P21728)
group.label: yes

cpd.smiles: Cc1cnc2c(c1)[C@@H]1c3cc(O)c(O)cc3CC[C@H]1NC2
tested.target: Dopamine D1 and D2 receptor (Homo sapiens) (UniProt P14416+P21728)
group.label: no

cpd.smiles: CCCc1ccc2c(n1)CN[C@@H]1CCc3cc(O)c(O)cc3[C@@H]21
tested.target: Dopamine D1 and D2 receptor (Homo sapiens) (UniProt P14416+P21728)
group.label: no

cpd.smiles: Oc1cc2c(cc1O)[C@H]1c3cccnc3CN[C@@H]1CC2
tested.target: Dopamine D1 and D2 receptor (Homo sapiens) (UniProt P14416+P21728)
group.label: no

cpd.smiles: Oc1cc2c(cc1O)[C@H]1c3cnccc3CN[C@@H]1CC2
tested.target: Dopamine D1 and D2 receptor (Homo sapiens) (UniProt P14416+P21728)
group.label: yes

cpd.smiles: Cc1cncc2c1CN[C@@H]1CCc3cc(O)c(O)cc3[C@@H]21
tested.target: Dopamine D1 and D2 receptor (Homo sapiens) (UniProt P14416+P21728)
group.label: yes

cpd.smiles: Cc1cc2c(nc1C)CN[C@@H]1CCc3cc(O)c(O)cc3[C@@H]21
tested.target: Dopamine D1 and D2 receptor (Homo sapiens) (UniProt P14416+P21728)
group.label: no

cpd.smiles: Oc1cc2c(cc1O)[C@H]1c3ccncc3CN[C@@H]1CC2
tested.target: Dopamine D1 and D2 receptor (Homo sapiens) (UniProt P14416+P21728)
group.label: no

cpd.smiles: Oc1cc2c(cc1O)[C@H]1c3ccc(F)nc3CN[C@@H]1CC2
tested.target: Dopamine D1 and D2 receptor (Homo sapiens) (UniProt P14416+P21728)
group.label: no

cpd.smiles: CCCc1cc2c(s1)CN[C@@H]1CCc3cc(O)c(O)cc3[C@@H]21
tested.target: Dopamine D1 and D2 receptor (Homo sapiens) (UniProt P14416+P21728)
group.label: no

cpd.smiles: Oc1cc2c(cc1O)[C@H]1c3cncc(F)c3CN[C@@H]1CC2
tested.target: Dopamine D1 and D2 receptor (Homo sapiens) (UniProt P14416+P21728)
group.label: yes

cpd.smiles: COc1ccc2c(n1)CN[C@@H]1CCc3cc(O)c(O)cc3[C@@H]21
tested.target: Dopamine D1 and D2 receptor (Homo sapiens) (UniProt P14416+P21728)
group.label: no

====

target: D(1A) dopamine receptor (Homo sapiens, UniProt P21728); experiment: Potency in adenylate cyclase functional assay against Dopamine receptor D1
Sequence (P21728 whole entry): as the sequence (P21728 whole entry, looked up) above
Below, each entry is listed alongside its reported EC50.

cpd.smiles: Oc1cc2c(cc1O)[C@H]1c3cnccc3CN[C@@H]1CC2
EC50: 0.32 µM

cpd.smiles: Oc1cc2c(cc1O)[C@H]1c3ccncc3CN[C@@H]1CC2
EC50: 0.038 µM

cpd.smiles: Cc1cc2c(nc1C)CN[C@@H]1CCc3cc(O)c(O)cc3[C@@H]21
EC50: 0.12 µM

Reference source for all entries: ChEMBL document CHEMBL1131704
